# TARGET SYSTEM: human Claudin18.2 (human)
# PROTOCOL SUMMARY: cell-based or functional assay
binders and their reported CDC EC50
Return type: number; implicit unit µg/mL.

- BINDER: "419A5F3 (antibody, V domains shown) VH: DVQLVESGGGLVQPGGSRKLSCAASGFTFSGFGMHWIRQTPEKGLEWVAYISSDSRPIYYADTVKGRFTISRDNPKNTLFLQMTSLRSEDTAMYFCGRFYYGNSFDHWGQGTLVTVSA VL: DIVMTQSPSFLTVTAGEKVTLSCRSSQSLLNSGNQRNYLTWYQQKPGQPPKLLIYWASTRESGVPDRFTGSGSGTDFTLTISSVQAEDRALYYCQNAYSFPLTFGTGTKLELR"
  CDC EC50, µg/mL: 2.79

Note: attention shifts to another entry.
Incoming: Need CDC EC50, item 413B1C9 (antibody, V domains shown) VH: DVQLVESGGGLVQPGGSRKLSCAASGFTFSSFGMHWVRQAPEKGLEWVAYISSGSSPIYYADTVKGRFTISRDNPKNTLFLQMTSLRSEDTAMYFCARFYYGNSFDHWGQGTLVTVSA VL: DIVMTQSPSSLTVTTGEKVSMSCKSSQSLFNRGNQKSYLTWYQQKPGQPPKLLIYWASTRESGVPDRFTGSGSGTDFTLTISSVQAEDLAVYYCQNNYIYPLTFGAGTKLELK
Outgoing: 26.3
